Source listed as ChEMBL document CHEMBL3745593.

# MEASUREMENT_TARGET: TGF-beta receptor type-1 (Homo sapiens, UniProt P36897)
# Sequence (P36897 whole entry): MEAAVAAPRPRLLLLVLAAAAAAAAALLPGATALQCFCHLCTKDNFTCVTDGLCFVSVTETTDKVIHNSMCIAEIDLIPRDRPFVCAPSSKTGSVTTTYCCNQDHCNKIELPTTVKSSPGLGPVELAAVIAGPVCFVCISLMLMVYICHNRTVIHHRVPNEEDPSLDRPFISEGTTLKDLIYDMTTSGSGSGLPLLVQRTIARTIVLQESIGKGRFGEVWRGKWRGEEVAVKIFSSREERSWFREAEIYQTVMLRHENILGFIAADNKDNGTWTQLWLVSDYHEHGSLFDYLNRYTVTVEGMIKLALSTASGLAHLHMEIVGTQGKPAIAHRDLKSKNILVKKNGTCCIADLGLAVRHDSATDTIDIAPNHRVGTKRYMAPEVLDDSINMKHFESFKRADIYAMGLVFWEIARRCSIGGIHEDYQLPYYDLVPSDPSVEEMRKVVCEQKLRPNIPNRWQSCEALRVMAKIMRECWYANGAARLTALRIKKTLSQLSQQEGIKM
PARAMETER_MEASURED: IC50 (µM)
One number for each entry, in µM.

Dear colleague, I am looking for the recorded IC50 of the following compound: c1cc(-c2cnn3cc(-c4ccc(OCCN5CCCCC5)cc4)cnc23)ccn1 [DORSOMORPHIN]
10

###

Protein target, amino acids: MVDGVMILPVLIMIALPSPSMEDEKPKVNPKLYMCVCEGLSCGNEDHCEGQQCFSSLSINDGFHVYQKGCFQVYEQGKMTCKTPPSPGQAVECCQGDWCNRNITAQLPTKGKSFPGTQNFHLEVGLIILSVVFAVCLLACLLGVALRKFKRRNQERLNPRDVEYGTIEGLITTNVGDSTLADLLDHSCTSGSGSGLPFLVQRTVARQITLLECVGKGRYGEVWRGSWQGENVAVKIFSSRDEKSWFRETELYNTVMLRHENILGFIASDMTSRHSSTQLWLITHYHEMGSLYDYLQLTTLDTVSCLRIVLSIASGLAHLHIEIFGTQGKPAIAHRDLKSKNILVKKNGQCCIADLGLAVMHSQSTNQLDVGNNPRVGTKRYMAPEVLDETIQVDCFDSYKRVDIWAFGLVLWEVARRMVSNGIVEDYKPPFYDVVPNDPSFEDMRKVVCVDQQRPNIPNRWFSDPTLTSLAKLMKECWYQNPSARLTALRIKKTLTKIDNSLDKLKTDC
PARAMETER_MEASURED: pIC50
One number for each entry, as −log10 of the molar value.

Look up pIC50 for this compound: CC(C)Oc1ccc(-c2cnc3c(-c4ccnc5ccccc45)cnn3c2)cc1
7.00
